From: patent US20240415918A1

Can you tell me Tmax for the items I'm about to list?
Experiment: Pharmacokinetics in KM mice after intravenous administration
Details: male, mouse, plasma, 1 mg/kg
Where a SMILES comes first, the peptide text is derived from it. [ ]: non-standard residue; d: D form. Phe(3-Br) = N[C@@H](Cc1cccc(Br)c1)C(=O)O; Nle = CCCC[C@H](N)C(=O)O
Just the number in min, nothing appended.

Task item: Give the measured Tmax of CCCC[C@H](NC(=O)[C@H](Cc1c[nH]c2ccccc12)NC(C)=O)C(=O)N[C@@H](CC(=O)O)C(=O)N[C@@H](Cc1cccc(Br)c1)C(N)=O [HT-177, Ac-Trp-Nle-Asp-Phe(3-Br)-NH2] (Ac-W[Nle]D[Phe(3-Br)]-NH2) .
Reply: 15

Task item: Give the measured Tmax of `CSCC[C@H](NC(=O)[C@@H](Cc1c[nH]c2ccccc12)NC(C)=O)C(=O)N[C@@H](CC(=O)O)C(=O)N[C@@H](Cc1cccc(Br)c1)C(N)=O` .
Reply: 1.98
